- target-entity: human FPTase (Homo sapiens, UniProt P49354+P49356)
- Construct: made in house
- assay-notes: In vitro inhibition of ras farnesyl transferase (human FPTase assay)
- Format: biochemical
- assay-context: 100 nM Ras-CVIM, [3H]-farnesyl diphosphate, 30 min, read-out: IC50, inhibitory activity against human FPTase
pIC50: −log10 of the molar value. Counter-ions that a name gives are not always drawn.
measure: pIC50

Req: Item under review: CCCC[C@H]1CN(CC(F)(F)F)C(=O)CN1Cc1cncn1Cc1ccc(C#N)cc1 [Example 1, dihydrochloride] . Reported pIC50?
Resp: ≥ 4.30

Values from patent US5972942A
